- studySystem: MPXV E8L ectodomain, His-tagged recombinant protein (mpox virus (MPXV), isolate MPXV_USA_2022_MA001)
- assaySummary: SPR; BiaCore T200; […]; 1:1 binding model
Please go through the items and note down their log10(kon).
Record value = log10 of kon given in M⁻¹ s⁻¹.

Per the records, this binder ( Nanobody E8L-01 (VHH) VHH: QVQLVESGGGLVQAGGSLRLSCAASGRIFINRVMGWYRQAPGKEREFVAGIAQGGSTNYADSVKGRFTISRDNAKNTVYLQMNSLKPEDTAVYYCAAKFWNWHHDHRGYDYWGQGTQVTVSS ) has log10(kon) equal to 6.64

Record Nanobody E8L-07 (VHH) VHH: QVQLVESGGGLVQAGGSLRLSCAASGSIFKRYKMGWYRQAPGKEREFVACINKGGDTNYADSVKGRFTISRDNAKNTVYLQMNSLKPEDTAVYYCAVKRHAKAYGEFFYDYWGQGTQVTVSS , field log10(kon): 5.73

log10(kon) reported for this binder Nanobody E8L-05 (VHH) VHH: QVQLVESGGGLVQAGGSLRLSCAASGRIFDTVEMGWYRQAPGKEREFVASISGGDSTYYADSVKGRFTISRDNAKNTVYLQMNSLKPEDTAVYYCAARSARNRWSIIFYDYWGQGTQVTVSS : 5.92

Reported log10(kon) for Nanobody E8L-02 (VHH) VHH: QVQLVESGGGLVQAGGSLRLSCAASGRIFTDSYMGWYRQAPGKEREFVACITTGSSTYYADSVKGRFTISRDNAKNTVYLQMNSLKPEDTAVYYCAARFRYTVQHWFHTKFDYWGQGTQVTVSS was 5.26

What the record says about Nanobody E8L-06 (VHH) VHH: QVQLVESGGGLVQAGGSLRLSCAASGFIFTSTRMGWYRQAPGKEREFVAGISIGGNTNYADSVKGRFTISRDNAKNTVYLQMNSLKPEDTAVYYCAARYYYFHNHNFAYDYWGQGTQVTVSS : log10(kon) is 5.96

Consider Nanobody E8L-04 (VHH) VHH: QVQLVESGGGLVQAGGSLRLSCAASGRIFGRRAMGWYRQAPGKEREFVAAISNGFNTNYADSVKGRFTISRDNAKNTVYLQMNSLKPEDTAVYYCAATVSRRGEQTFFYDYWGQGTQVTVSS . Its measured log10(kon) is 5.94

Lab book: log10(kon) of Nanobody E8L-08 (VHH) VHH: QVQLVESGGGLVQAGGSLRLSCAASGFIFTNWGMGWYRQAPGKERELVAAITSGSSTNYADSVKGRFTISRDNAKNTVYLQMNSLKPEDTAVYYCAAIRGFSLIYQFFAQYDYWGQGTQVTVSS noted as 5.81

So, Nanobody E8L-03 (VHH) VHH: QVQLVESGGGLVQAGGSLRLSCAASGFIFTTRGMGWYRQAPGKEREFVACIFPGSSTNYADSVKGRFTISRDNAKNTVYLQMNSLKPEDTAVYYCAAEGPYRGFNFKKNLYDYWGQGTQVTVSS ? Its log10(kon) was 5.82
